# test-system: T1, human Trop-2 expressed on cell surface (human, UniProt P09758 27-323)
# T1 sequence (looked up): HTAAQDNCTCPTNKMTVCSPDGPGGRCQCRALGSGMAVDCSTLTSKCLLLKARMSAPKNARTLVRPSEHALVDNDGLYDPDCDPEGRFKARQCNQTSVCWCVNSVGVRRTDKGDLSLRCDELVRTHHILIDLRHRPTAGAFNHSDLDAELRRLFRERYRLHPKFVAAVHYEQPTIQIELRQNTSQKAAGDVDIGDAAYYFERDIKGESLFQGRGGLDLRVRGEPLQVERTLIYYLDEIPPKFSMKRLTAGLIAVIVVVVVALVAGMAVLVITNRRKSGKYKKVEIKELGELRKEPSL
# assay-name: cell-based or functional assay
experimental-endpoint: Internalization %, MDA-MB-231, 0.5 µg/ml, 2 h (%)
Field: numeric (%). Do not append units.

Look over these answered cases.
binder	unit-of-measure	obs-value
65D5 (antibody, V domains shown, Rabbit-derived clone; LEM construct: VH + rabbit IgG CH1 + human IgG1 CH2-CH3) VH: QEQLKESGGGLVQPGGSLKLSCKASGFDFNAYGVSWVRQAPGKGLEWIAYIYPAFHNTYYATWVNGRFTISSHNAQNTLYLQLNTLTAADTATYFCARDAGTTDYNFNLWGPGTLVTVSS VL: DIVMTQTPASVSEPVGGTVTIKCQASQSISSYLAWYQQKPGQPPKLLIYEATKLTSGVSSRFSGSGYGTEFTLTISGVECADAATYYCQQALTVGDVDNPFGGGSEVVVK	%	43
10A9 (antibody, V domains shown, Rabbit-derived clone; LEM construct: VH + rabbit IgG CH1 + human IgG1 CH2-CH3) VH: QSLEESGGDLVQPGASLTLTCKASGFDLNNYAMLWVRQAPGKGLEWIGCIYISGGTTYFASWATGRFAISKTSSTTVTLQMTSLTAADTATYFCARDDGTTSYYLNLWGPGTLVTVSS VL: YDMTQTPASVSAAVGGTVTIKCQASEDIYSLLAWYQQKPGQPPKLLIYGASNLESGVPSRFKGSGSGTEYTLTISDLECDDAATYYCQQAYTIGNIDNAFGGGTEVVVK	%	47
9D7 (antibody, V domains shown, Rabbit-derived clone; LEM construct: VH + rabbit IgG CH1 + human IgG1 CH2-CH3) VH: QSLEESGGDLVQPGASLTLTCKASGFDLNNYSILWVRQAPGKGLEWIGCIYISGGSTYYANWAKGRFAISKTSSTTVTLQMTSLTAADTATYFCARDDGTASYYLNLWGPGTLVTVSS VL: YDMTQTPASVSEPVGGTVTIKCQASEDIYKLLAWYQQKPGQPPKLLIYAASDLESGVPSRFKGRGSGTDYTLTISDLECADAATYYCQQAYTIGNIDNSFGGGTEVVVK	%	47
66A1 (antibody, V domains shown, Rabbit-derived clone; LEM construct: VH + rabbit IgG CH1 + human IgG1 CH2-CH3) VH: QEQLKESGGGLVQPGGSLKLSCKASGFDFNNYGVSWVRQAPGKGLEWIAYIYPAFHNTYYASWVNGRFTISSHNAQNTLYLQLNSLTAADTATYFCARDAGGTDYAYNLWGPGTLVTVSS VL: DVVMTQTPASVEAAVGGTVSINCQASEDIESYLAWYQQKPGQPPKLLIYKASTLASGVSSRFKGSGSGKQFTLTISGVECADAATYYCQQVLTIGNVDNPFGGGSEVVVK	%	46

Sample 9F7 (antibody, V domains shown, Rabbit-derived clone; LEM construct: VH + rabbit IgG CH1 + human IgG1 CH2-CH3) VH: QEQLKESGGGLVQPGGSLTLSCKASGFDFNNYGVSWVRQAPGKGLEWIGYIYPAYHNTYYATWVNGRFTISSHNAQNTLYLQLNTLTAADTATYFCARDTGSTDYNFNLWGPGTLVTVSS VL: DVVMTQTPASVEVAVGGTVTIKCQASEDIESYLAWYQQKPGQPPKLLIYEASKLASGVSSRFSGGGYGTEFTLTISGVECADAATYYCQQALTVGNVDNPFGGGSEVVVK ; Internalization %, MDA-MB-231, 0.5 µg/ml, 2 h observed: 34
